- assay-name: Nitric oxide release, Griess colorimetric method
- Assay type: physicochemical
- condition-summary: phosphate buffer pH 7.4, N-acetylcysteine, 1 h
This listing pairs compounds with measured Amount of NO Released (mol/mol) 1 h.
Numbers only; they are read as mol/mol.

In the examples that follow, each entry is paired with its recorded Amount of NO Released (mol/mol) 1 h.
record-smiles | unit-descriptor | Amount of NO Released (mol/mol) 1 h
COc1ccc(-c2cc(C(=O)Oc3ccc(/C(C)=N/O)cc3OC)nn2-c2ccccc2)cc1OC | mol/mol | 0.064
COc1cc(/C(C)=N/O)ccc1OC(=O)c1cc(-c2ccc(C)cc2)n(-c2ccc(S(N)(=O)=O)cc2)n1 | mol/mol | 0.083

For "COc1cc(/C(C)=N/O)ccc1OC(=O)c1cc(-c2ccc(C)cc2)n(-c2ccccc2)n1" the compound record lists Amount of NO Released (mol/mol) 1 h as 0.102

---

- System: human pancreatic cancer cell line SUIT-2
- assay-name: WST-8 antiproliferative assay, SUIT-2
- Format: cell-based
- condition-summary: SUIT-2, 100 µM, WST-8 assay, read-out: Growth Inhibition (GI%) SUIT-2
value-type: inhibition at 100 µM (%)
Numbers only; they are read as %.

In the examples that follow, each entry is paired with its recorded inhibition at 100 µM.
molecule | unit-descriptor | reported-value
C/C(=N\O)c1ccc(NC(=O)c2cc(-c3ccccc3)n(-c3ccc(S(N)(=O)=O)cc3)n2)cc1 [Compound 10a] | % | 88
COc1ccc(-c2cc(C(=O)Oc3ccc(/C(C)=N/O)cc3OC)nn2-c2ccc(S(N)(=O)=O)cc2)cc1 | % | 73
COc1ccc(-c2cc(C(=O)Nc3ccc(C(C)=O)cc3)nn2-c2ccc(S(N)(=O)=O)cc2)cc1OC | % | 42
COc1ccc(-c2cc(C(=O)Oc3ccc(C(C)=O)cc3OC)nn2-c2ccccc2)cc1 | % | 68

For "COc1ccc(-c2cc(C(=O)Nc3ccc(C(C)=O)cc3)nn2-c2ccc(S(N)(=O)=O)cc2)cc1" the molecule record lists inhibition at 100 µM as 45

For "COc1cc(C(C)=O)ccc1OC(=O)c1cc(-c2ccc(C)cc2)n(-c2ccc(S(N)(=O)=O)cc2)n1" the molecule record lists inhibition at 100 µM as 92

For "COc1cc(C(C)=O)ccc1OC(=O)c1cc(-c2ccc(Cl)cc2)n(-c2ccc(S(N)(=O)=O)cc2)n1" the molecule record lists inhibition at 100 µM as 101

For "COc1cc(/C(C)=N/O)ccc1OC(=O)c1cc(-c2ccccc2)n(-c2ccc(S(N)(=O)=O)cc2)n1" the molecule record lists inhibition at 100 µM as 95

---

This listing pairs compounds with measured melting point.

record-smiles | melting point
CC(=O)c1ccc(NC(=O)c2cc(-c3ccccc3)n(-c3ccc(S(N)(=O)=O)cc3)n2)cc1 | 81 to 83 °C

For "COc1ccc(-c2cc(C(=O)Oc3ccc(C(C)=O)cc3OC)nn2-c2ccc(S(N)(=O)=O)cc2)cc1OC" the compound record lists melting point as 75 to 78 °C

For "COc1cc(/C(C)=N/O)ccc1OC(=O)c1cc(-c2ccccc2)n(-c2ccccc2)n1" the compound record lists melting point as 167 to 170 °C

For "COc1ccc(-c2cc(C(=O)Oc3ccc(/C(C)=N/O)cc3OC)nn2-c2ccc(S(N)(=O)=O)cc2)cc1OC" the compound record lists melting point as 129 to 131 °C

For "COc1cc(/C(C)=N/O)ccc1OC(=O)c1cc(-c2ccc(C)cc2)n(-c2ccccc2)n1" the compound record lists melting point as 123 to 125 °C

For "COc1cc(C(C)=O)ccc1OC(=O)c1cc(-c2ccccc2)n(-c2ccc(S(N)(=O)=O)cc2)n1" the compound record lists melting point as 69 to 72 °C
